Tested on: A53T a-syn oligomers
Experiment: Luciferase PCA of A53T a-syn oligomers
Format: cell-based, human
Conditions: replicate 2
test-readout: A53T a-syn oligomers as measured by luciferase activity
Form: value (number only, do not type unit).

Below are worked cases with known answers.
• IERQLKA [PDpep1.1] = 321472
• DEEIERQLKALG [PDpep1.3] = 195592

Any idea what A53T a-syn oligomers as measured by luciferase activity was measured for IPIQLKA [PDpep1, initial screen hit peptide IPIQLKA] ?
258154

Any idea what A53T a-syn oligomers as measured by luciferase activity was measured for EIERQLKALG [PDpep1.2] ?
281836

###

Test system: Parent HEK293 cells
Experiment: Cell Titer-Glo cell viability, parent cells
Format: cell-based, human
Conditions: MG132 10 μM, 72 h, replicate 1
Each entry below carries its recorded Cell viability.

• IERQLKA [PDpep1.1] = 3550
• IPIQLKA [PDpep1, initial screen hit peptide IPIQLKA] = 3800
• EIERQLKALG [PDpep1.2] = 4500

Attention now shifts to the item below.
Any idea what Cell viability was measured for DEEIERQLKALG [PDpep1.3] ?
4900
